Where these numbers come from: patent US20200283507A1

Target: T1, Hu/NoV/GI.1/Norwalk/1968/U.S. VLP (human norovirus GI.1, UniProt Q83884 1-530 (Norovirus (strain entry), limits assumed))
T1 construct: mature; full-length VP1 (ORF2) assembled as virus-like particle in baculovirus/Sf9; also called Norwalk VLP; NV
T1 sequence (looked up): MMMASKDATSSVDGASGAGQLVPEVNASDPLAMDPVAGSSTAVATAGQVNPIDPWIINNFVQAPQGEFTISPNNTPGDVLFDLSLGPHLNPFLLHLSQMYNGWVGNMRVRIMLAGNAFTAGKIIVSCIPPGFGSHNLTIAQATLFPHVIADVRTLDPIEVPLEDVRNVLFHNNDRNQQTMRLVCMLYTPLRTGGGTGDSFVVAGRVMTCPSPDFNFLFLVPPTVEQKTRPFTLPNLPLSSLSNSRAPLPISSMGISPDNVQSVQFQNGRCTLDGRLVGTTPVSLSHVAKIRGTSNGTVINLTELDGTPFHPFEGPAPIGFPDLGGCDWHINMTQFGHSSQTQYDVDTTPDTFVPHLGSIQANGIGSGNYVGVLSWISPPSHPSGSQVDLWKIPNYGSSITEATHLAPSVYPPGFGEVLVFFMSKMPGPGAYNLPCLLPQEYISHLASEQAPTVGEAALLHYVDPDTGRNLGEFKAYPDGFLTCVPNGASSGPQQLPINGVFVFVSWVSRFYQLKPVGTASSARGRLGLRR
Assay: blockade ELISA: VLP binding to PGM type III
Protocol: Pig Gastric Mucin Type III (PGM) (Sigma Chemicals) was used as a substrate for NoV VLP antibody-blockade assay as previously described. […] Bound VLPs were detected by specific hyperimmune sera made in guinea pig, followed by anti-guinea pig IgG-HRP (KLP). […] All incubations were performed at room temperature and absorbance at 405 nm was measured. Mean % control binding, EC50 and criteria for determination of a blockade VHH were calculated as described above.

- BINDER: "VHH 6.3 (VHH, llama VHH, Norwalk (GI.1) library; also called clone 6.3) VHH: QVQLQQSGGGLVQPGGSLRLSCAASGSIFSIHTMGWYRQAPGKQRELVTTITTGGTTNYADSVKGRFTISRDDAKNTVYLQMNNLKPEDTAVYYCYALIQTASTTWYRQYWGQGTQVTVSS"
  EC50 [µg/mL]: 0.661
- BINDER: "VHH 13.1 (VHH, llama VHH, Norwalk library, subtractive biopanning; His6 tag; also called 13.2; clone 13) VHH: QVKLQESGGGWVQAGGSLRLSCAASALTASITTMGWFRQTPEKEREFLAAINWTGDYKYYADSVKGRFTISRDNAKNTVDLQMNQLKPEDTAVYYCAASKIRNDIYLNDYTWYQYWGQGTQVTVSS"
  EC50 [µg/mL]: 1.29
- BINDER: "VHH 12.2 (VHH, llama VHH, Norwalk library; pHEN6, C-terminal His6 tag) VHH: DVQLQASGGGLVQAGGSLRLSCAASGSTISSYAMAWYRQAPGKRRELVAHISSGGSTNYADSVKGRFTISRDNAKNTVYLQMNSLKPEDTAVYYCNIYYGGDYYYTGVKPNPWGQGTQVTVSS"
  EC50 [µg/mL]: 2.59
- BINDER: "VHH 14.5 (VHH, llama VHH, Norwalk library; pHEN6, C-terminal His6 tag) VHH: DVQLQASGGGLVQAGGSLRLSCVASARTFSSYAMGWFRQAPGKEREFVAAISWSGASTDYADSVKGRFTISRDNAKKTVYLQMNTLKPEDTAVYYCAAHHITPTGSYYYSEPLPVDMVYDYWGQGTQVTVSS"
  EC50 [µg/mL]: 0.351
- BINDER: "VHH 9.8 (VHH, llama VHH, Norwalk library; His6 tag) VHH: QVKLQQSGGGLVQAGGSLRLSCAASGTFSRYAMGWFRQAPGKEREFVAAINWTGGSTYYADSVKGRFTISGDNAKNTVYLQMNSLKPGDTAVYYCAAEVHPGDYGLTYMQSQYEYDYWGQGTQVTVSS"
  EC50 [µg/mL]: 1.14
